- system_name: Torsin-1A-interacting protein 1 (Homo sapiens)
- procedure_summary: LAP1 binders from COS7 cell lysate, primary screen, small-molecule microarray, 635/667 nm fluorescence (AID 1116)
- reported_conditions: COS7-hLAP1 lysate binding, 635 nm fluorescence, higher = more signal
readout_kind: composite z-score
Returns: the value as a bare number; no unit string appended.

Completed entries (count: 4):
compound | system_name | composite z-score
[N-]=[N+]=Nc1ccccc1[C@H]1OC(c2ccc(OCCCO)cc2)=N[C@@]1(Cc1ccccc1)C(=O)O | Torsin-1A-interacting protein 1 (Homo sapiens) | 0.826
CCOC(=O)C=Cc1cc([N+](=O)[O-])ccc1O | Torsin-1A-interacting protein 1 (Homo sapiens) | 0.106
O=C(C1N=C(c2ccc(OCCCO)cc2)N(c2ccccc2)O1)N1CCOCC1 (stereo not given) | Torsin-1A-interacting protein 1 (Homo sapiens) | 0.832
CCCCC=C[C@@H](NC(=O)Oc1cccc(C(F)(F)F)c1)c1ccccc1 | Torsin-1A-interacting protein 1 (Homo sapiens) | 0.503

// moving on: another record for composite z-score
composite z-score on Torsin-1A-interacting protein 1 (Homo sapiens) for O=C1NC(=O)C2C1C=CC(C(O)c1cccc3ccccc13)N2Nc1ccccn1 (stereo not given) is 0.594

====

- procedure_summary: small-molecule microarray binders of probe aXIP, primary screen, biochemical, NeuroSMM set, 635/667 nm fluorescence (AID 1119);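 also: probe is the protein aXip251-270 applied at 1 µg/mL to compound-printed slides; binding of probe to printed compounds measured as 667 nm fluorescence plus signal to noise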
- reported_conditions: higher = more signal, called active from +8 up or from −8 down
# composite Z-score >= 0.3 gives met, anything below gives not met

compound | group_label
COc1cc2c(cc1OC)CN(C(=O)[C@H]1[C@@H]3C(=O)O[C@@H](c4ccccc4)[C@@H](c4ccccc4)N3[C@@H](c3ccc(O)cc3)[C@]13C(=O)Nc1ccc(C#CCNC(N)=O)cc13)CC2 | not met
CC(C)c1ccc(NN2C(C(O)C(c3ccccc3)c3ccccc3)C=CC3C(=O)N(c4ccccc4)C(=O)C32)cc1 (stereo not drawn) | not met
CCOC(=O)C1=CCC(c2ccccc2)N(S(=O)(=O)CC[Si](C)(C)C)C1 (stereo not drawn) | not met
CN1C(=O)C2C=CC(C(O)c3ccc(-c4ccccc4)s3)N(N(c3ccccc3)c3ccccc3)C2C1=O (stereo not drawn) | met
C=C(COC)/C(=C/C[C@@H](OC(C)=O)c1ccc(CO)o1)c1cnc2ccccc2c1 | met

Assess whether reported composite Z-score for C=C(CCCC)C(=O)CC[C@H](OC(=O)c1cccnc1)c1ccccc1OCCO sits at 0.3 or higher.
met

Decide: is the reported value of composite Z-score for [N-]=[N+]=Nc1ccccc1C[C@@]1(C(=O)NCCN2CCOCC2)N=C(c2ccc(OCCCO)cc2)O[C@@H]1c1ccccc1 equal to or greater than 0.3?
not met

====

- procedure_summary: CREB reporter modulators under forskolin, primary screen, cell-based, PC12, CRE-LacZ reporter, forskolin-stimulated (AID 1146);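 also: PC12 cells with 6xCRE LacZ reporter stimulated by forskolin 10 µM; beta-galactosidase reporter signal reflecting CREB driven transcription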
- reported_conditions: luminescence, 4.5 h, higher = more signal, called active from +8 up or from −8 down
readout_kind: z-score
No unit in the answer, only the number.

These solved cases illustrate the format of a correct answer.
smiles_code | test_value
COCCOC(=O)N1C(=O)[C@@]2(c3cc(C#CCCO)ccc31)[C@H](c1ccc(OCCO)cc1)N1[C@H](c3ccccc3)[C@H](c3ccccc3)OC(=O)[C@H]1[C@@H]2C(=O)N1CCN(c2ncccn2)CC1 | 0.653
C=C(COC)/C(=C/C[C@@H](OC(C)=O)c1ccc(OCCO)cc1)c1cc(C(=O)OC)ccc1OC | 1.96
O=C1O[C@@H](c2ccccc2)[C@@H](c2ccccc2)N2[C@@H](c3ccccc3OCCO)[C@]3(C(=O)Nc4ccc(C#CC5=CCCCC5)cc43)[C@@H](C(=O)Nc3nc4ccccc4s3)[C@H]12 | 0.447
COC(=O)[C@@]1(Cc2ccc(OC)cc2)[C@H]2c3cc(C(=O)N(C)C)n(CCN4CNCC4=O)c3C[C@H]2CN1C(=O)c1ccccc1 | -0.403

Here is another compound to look at.
Notebook: COC(=O)[C@@]1(Cc2ccc(F)cc2)[C@@H]2[C@@H](CC(=O)[C@H]2CC(=O)C(=O)N(C)C)CN1C(=O)c1ccccc1 , z-score read as 0.245

====

- procedure_summary: E. coli DRC41 culture turbidity changes, primary screen, E. coli filamentation inducer project, strain DRC41, OD650, 48 h (AID 1152);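 also: E. coli MC1000 strain DRC41 lacking acrAB efflux pump and sulA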
- reported_conditions: E. coli DRC41 (acrAB sulA), higher = more signal, called active from +8 up or from −8 down
readout_kind: z-score
Could you respond with only the numeric value?

The examples below pair each entry with its known result.
compound | z-score
COCCCNC(=O)[C@@]1(Cc2ccccc2)N=C(c2ccc(OCCCO)cc2)O[C@H]1c1ccccc1 | -0.146
COC(=O)C=C(CC(O)c1cccc(Cl)c1)OC (stereo unspecified) | 0.502
COCCOC(=O)N1C(=O)[C@@]2(c3cc(C#CC4=CCCCC4)ccc31)[C@H](c1ccc(O)cc1)N1[C@H](c3ccccc3)[C@H](c3ccccc3)OC(=O)[C@H]1[C@@H]2C(N)=O | -0.623
C=CCOC(=O)[C@H]1[C@@H]2C(=O)O[C@@H](c3ccccc3)[C@@H](c3ccccc3)N2[C@@H](c2ccc(OCCOC(=O)[C@@H]3C[C@@H]4C(=O)N5CCC[C@H]5C(=O)N4[C@@H]3c3cccc(OCCO)c3)cc2)[C@]12C(=O)Nc1ccccc12 | -0.152
CCOC(=O)C[C@H]1[C@H](OC(=O)Cc2ccc3c(c2)OCO3)[C@@H](NC(=O)c2ccc(-c3ccccc3)cc2)c2cc(OCCCO)ccc2N1C(=O)Cc1ccc(OC)cc1 | 2.84
CCCCC(O)C1C=CC2C(=O)N(c3ccccc3)C(=O)C2N1Nc1ccccc1F (stereo unspecified) | -1.06
CN(C)C(=O)[C@]1(Cc2ccccc2CN=[N+]=[N-])N=C(c2ccc(OCCCO)cc2)O[C@@H]1c1ccccc1CN=[N+]=[N-] | -0.214
CC(C)C(CO)N1C(=O)[C@@H]2[C@H]3C(=O)OCC=C[C@H]3OC23C=CCN(C(C)C)C(=O)[C@@H]13 (stereo partly specified) | 1.4
O=C1O[C@H](c2ccccc2)[C@H](c2ccccc2)N2[C@H]1[C@@H](C(=O)N1CCN(c3ncccn3)CC1)[C@]1(C(=O)Nc3ccc(C#CC4=CCCCC4)cc31)[C@H]2c1ccc(O)cc1 | 0.635
CN1C(=O)[C@]2(Cc3ccccc3)N=C(c3ccc(OCCCO)cc3)O[C@@H]2c2ccccc21 | -0.105

Shift focus to the following entry.
Notebook: C=C(COC)/C(=C/C[C@@H](OC(C)=O)c1ccc(OCCO)cc1)c1cc(C(=O)OC)ccc1OC , z-score read as 0.0977

====

Here, each record is paired with measured composite z-score data.
- procedure_summary: compound binding in COS7 lysate, probe aLAP1, primary screen, cell lysate, small-molecule microarray (AID 1124);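 also: lysate comes from COS7 cells expressing LAP1 and is applied at 0.3 µg/mL; score merges spot fluorescence near 667 nm with signal-to-noise over triplicate slides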
- reported_conditions: probe aLAP1, fluorescence, higher = more signal
Number only, no unit.

Example entries begin here.
compound | test_value
CCCCCN1CC=CC23O[C@@H]4/C=C\CCCOC(=O)C4[C@H]2C(=O)N(CCCO)[C@@H]3C1=O (stereo partly drawn) | 1.04
COCCOC(=O)N1C(=O)[C@@]2(c3cc(C#Cc4ccc(OC)cc4)ccc31)[C@H](C(N)=O)[C@H]1C(=O)O[C@H](c3ccccc3)[C@H](c3ccccc3)N1[C@@H]2c1ccccc1OCCO | 1.11
CC1CC/C=C\[C@H]2OC34C=CCN(Cn5nnc6ccccc65)C(=O)[C@H]3N(C(CO)C(C)C)C(=O)[C@@H]4C2C(=O)O1 (stereo partly drawn) | 0.549

Turning to the following compound.
The compound listed as CN(C)CCCNC(=O)[C@@]1(c2ccc([N+](=O)[O-])cc2)CC(=O)N(C2CCCCC2)[C@@H]1c1ccc(CO)cc1 has a reported composite z-score of -0.0291

====

- Test system: Plasmodium falciparum Sir2 (PF13_0152, Sir2A)
- procedure_summary: pfSir2 binders on small-molecule microarrays, primary screen, biochemical, small-molecule microarray, 635 nm fluorescence (AID 1098);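 also: score merges spot fluorescence intensity with its signal-to-noise ratio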
- reported_conditions: small-molecule microarray binding, fluorescence 635 nm; higher = more signal
readout_kind: composite z-score
# output: bare number, no unit

Study these solved cases before continuing.
compound | readout_kind | test_value
CCOC1=C2C(CN(S(=O)(=O)c3ccc(C)cc3)C2c2ccc(C)cc2)C2C(=O)N(c3ccccc3)C(=O)C2C1 (configuration not stated) | composite z-score | 0.9
CC(=O)n1cc(C(O)C2C=CC3C(=O)N(C)C(=O)C3N2Nc2ccccc2)c2ccccc21 (configuration not stated) | composite z-score | 0.511
CC(C)(C)OC(=O)CC[C@@]1(C(=O)NCC(O)CO)N=C(c2ccc(OCCCO)cc2)O[C@@H]1c1ccccc1N=[N+]=[N-] (some centres not stated) | composite z-score | 1.72
O=C1OCCC/C=C\[C@H]2OC34C=CCN(c5ccc6ccccc6c5)C(=O)[C@H]3N(CCCCCCO)C(=O)[C@@H]4C12 (some centres not stated) | composite z-score | 1.35

Kindly note the recorded composite z-score for CCCCCCC#C[Si](O[C@H](c1ccccc1)c1cn([C@H](CO)Cc2ccccc2)nn1)(C(C)C)C(C)C , which is 0.984

GET /value?item= CC1CC/C=C\[C@H]2OC34C=CCN(c5ccc(Cl)cc5)C(=O)[C@H]3N(CCO)C(=O)[C@]4(C)C2C(=O)O1 (some centres not stated) &field=composite z-score returns 0.111

The recorded composite z-score for entry CC(C)N1C(=O)c2ccccc2[C@](C)(C(=O)NCc2ccccc2)[C@@H]1c1ccc(CO)cc1 equals 0.758

Entry under test: O=C(O)[C@@]1(CCS(=O)(=O)c2ccccc2)COC(c2ccc(OCCCO)cc2)=N1 . Its composite z-score was 0.6

The compound identified as COC(=O)C=C(CC(O)c1cccc(Cl)c1)OC (configuration not stated) registered its composite z-score at -0.02

Reported composite z-score for COc1ccc([Si](C)(C)[C@@H]2[C@@H](CC(=O)N3Cc4ccccc4C[C@H]3CO)O[C@]3(C(=O)N(C)c4c(Br)cc(C)cc43)[C@H]2C)cc1 was 0.859

Notebook: COc1ccc([Si](C)(C)[C@H]2[C@H](CCO)O[C@@]3(C(=O)N(Cc4ccc(N5C(=O)COc6ccccc65)cc4)c4ccccc43)[C@@H]2C)cc1 , composite z-score read as 0.0297

Reported composite z-score for CN(C)CCCC[C@@H]1NC(=O)[C@H]2C[C@@H](C(=O)NCCCCCNC(=O)CS)[C@@H](c3cccc(OCCO)c3)N2C1=O was 1.12

The recorded composite z-score for O=C1NC(=O)C2C1C=CC(C(O)c1ccccc1)N2Nc1ccc(Cl)cc1Cl (configuration not stated) is 1.62

Memo: O=C(c1ccccc1)N1Cc2ccccc2[C@@H]2OC(c3ccc(OCCCO)cc3)=N[C@]2(Cc2ccccc2)C1=O , reported composite z-score: 1.35

Please fill in: composite z-score reported for CC(C)(C)OC(=O)CC[C@@]12N=C(c3ccc(OCCCO)cc3)O[C@@H]1c1ccccc1N(CCS(=O)(=O)c1ccccc1)C2=O = 0.691

Looking up COc1ccc([Si](C)(C)[C@H]2[C@H](CCO)O[C@@]3(C(=O)N(C)c4c(Br)cc(C)cc43)[C@@H]2C)cc1 , I see its composite z-score listed as 0.717

Lab book: composite z-score of COCCCNC(=O)[C@@]1(Cc2ccccc2)N=C(c2ccc(OCCCO)cc2)O[C@H]1c1ccccc1 noted as 1.19
